- Assay Name: Loss on drying / initial water content
- Format: physicochemical
Readout Type: Loss on drying (LOD) of a sample

Entry Cc1ccc(-c2ccc(O[C@H]3CN4CCC3CC4)cn2)cc1.O=C(O)CC(=O)O [mono-malonate salt] : reported Loss on drying (LOD) of a sample = ?
0%

----------
- Assay Name: Pharmacokinetics in rats after oral administration
- Format: in vivo, Wistar rats
- Condition Context: male, Wistar, rat, in vivo, po, 10 mg/kg, T½ (h), Mean All
Readout Type: half-life

Requested field: half-life. Item: "Cc1ccc(-c2ccc(O[C@H]3CN4CCC3CC4)cn2)cc1"
5.17 h

----------
Exercise: state measured Loss on drying (LOD) of a sample for each of the compounds provided.
- Assay Name: Loss on drying / initial water content
- Assay type: physicochemical

Name the recorded Loss on drying (LOD) of a sample for Cc1ccc(-c2ccc(O[C@H]3CN4CCC3CC4)cn2)cc1.O=C(O)/C=C\C(=O)O [mono-maleate salt] .
< 0.03%

# iterate: Cc1ccc(-c2ccc(O[C@H]3CN4CCC3CC4)cn2)cc1 [Compound A]
0.1%

What about Cc1ccc(-c2ccc(O[C@H]3CN4CCC3CC4)cn2)cc1.O=C(O)/C=C/C(=O)O [Compound B] ?
< 0.03%

----------
- Assay Name: Loss on drying / initial water content
- Assay type: physicochemical
- Set-up: unit not given here
- Condition Context: comparison table, Example 7
Readout Type: Initial water content

Name the reported Initial water content value associated with the molecule Cc1ccc(-c2ccc(O[C@H]3CN4CCC3CC4)cn2)cc1.Cl [mono-hydrochloride salt]
~5

Same again, this time with Cc1ccc(-c2ccc(O[C@H]3CN4CCC3CC4)cn2)cc1.O=C(O)/C=C\C(=O)O [mono-maleate salt]
<0.1

Next molecule up: Cc1ccc(-c2ccc(O[C@H]3CN4CCC3CC4)cn2)cc1.O=P(O)(O)O [Form A of the mono-phosphate salt]
~0.5

Next molecule: Cc1ccc(-c2ccc(O[C@H]3CN4CCC3CC4)cn2)cc1.O=C(O)CC(=O)O [mono-malonate salt]
~0

Now consider Cc1ccc(-c2ccc(O[C@H]3CN4CCC3CC4)cn2)cc1.O=C(O)CCC(=O)O [Form A of the mono-succinate salt] and answer again.
~4.5

Can you check Cc1ccc(-c2ccc(O[C@H]3CN4CCC3CC4)cn2)cc1.O=C(O)/C=C/C(=O)O [Compound B] next?
<0.5

Cc1ccc(-c2ccc(O[C@H]3CN4CCC3CC4)cn2)cc1 [Compound A] ?
0.1

----------
- Assay Name: Oral bioavailability and brain penetration in mice
- Assay type: in vivo
- Condition Context: male, OF1/IC, mouse, plasma, po, 30 μmol/kg p.o., 0.5 hour, read-out: Plasma (pmoles/ml ± SD)
Readout Type: concentration at 0.5 h
Returns: string containing the number followed by the unit.

I'd like to know its concentration at 0.5 h. The molecule in question is "Cc1ccc(-c2ccc(O[C@H]3CN4CCC3CC4)cn2)cc1"
559 pmol/mL
